experimental_parameters: in isopropanol, 283.15 K
observable: solubility (mole fraction)

Request: Retrieve solubility (mole fraction) measured for Nc1nccnc1Cl and print it.
Result: 0.00254

Request: Retrieve solubility (mole fraction) measured for Nc1ncc(Br)nc1Br and print it.
Result: 0.000615

* * *

Would you mind telling me the reported solubility (mole fraction) of each entry?
experimental_parameters: in water, 283.15 K

Request: Retrieve solubility (mole fraction) measured for Nc1ncc(Br)nc1Br and print it.
Result: 3.14e-06

Request: Retrieve solubility (mole fraction) measured for Nc1nccnc1Cl and print it.
Result: 3.74e-05

* * *

experimental_parameters: in propylene glycol, 298.15 K
observable: solubility (mole fraction)

Request: Retrieve solubility (mole fraction) measured for Nc1ncc(Br)nc1Br and print it.
Result: 0.000506

* * *

experimental_parameters: in methanol, 303.15 K
observable: solubility (mole fraction)
The answer should be written as a number, with no unit following it.

Request: Retrieve solubility (mole fraction) measured for Nc1nccnc1Cl and print it.
Result: 0.00847

* * *

experimental_parameters: in isopropanol, 288.15 K
Would you mind telling me the reported solubility (mole fraction) of each entry?
The answer should be written as a number, with no unit following it.

Request: Retrieve solubility (mole fraction) measured for Nc1ncc(Br)nc1Br and print it.
Result: 0.00072

Request: Retrieve solubility (mole fraction) measured for Nc1nccnc1Cl and print it.
Result: 0.00319

* * *

experimental_parameters: in methanol, 288.15 K
observable: solubility (mole fraction)
The answer should be written as a number, with no unit following it.

Request: Retrieve solubility (mole fraction) measured for Nc1nccnc1Cl and print it.
Result: 0.00479

* * *

Would you mind telling me the reported solubility (mole fraction) of each entry?
experimental_parameters: in water, 308.15 K
The answer should be written as a number, with no unit following it.

Request: Retrieve solubility (mole fraction) measured for Nc1nccnc1Cl and print it.
Result: 0.000106

Request: Retrieve solubility (mole fraction) measured for Nc1ncc(Br)nc1Br and print it.
Result: 6.76e-06

* * *

experimental_parameters: in ethanol, 308.15 K
observable: solubility (mole fraction)

Request: Retrieve solubility (mole fraction) measured for Nc1ncc(Br)nc1Br and print it.
Result: 0.00202

* * *

experimental_parameters: in methanol, 293.15 K
observable: solubility (mole fraction)
The answer should be written as a number, with no unit following it.

Request: Retrieve solubility (mole fraction) measured for Nc1nccnc1Cl and print it.
Result: 0.00598

* * *

Would you mind telling me the reported solubility (mole fraction) of each entry?
experimental_parameters: in water, 303.15 K

Request: Retrieve solubility (mole fraction) measured for Nc1ncc(Br)nc1Br and print it.
Result: 5.89e-06

Request: Retrieve solubility (mole fraction) measured for Nc1nccnc1Cl and print it.
Result: 9.05e-05

* * *

experimental_parameters: in propylene glycol, 293.15 K
observable: solubility (mole fraction)
The answer should be written as a number, with no unit following it.

Request: Retrieve solubility (mole fraction) measured for Nc1ncc(Br)nc1Br and print it.
Result: 0.000432

* * *

experimental_parameters: in propylene glycol, 303.15 K
observable: solubility (mole fraction)
The answer should be written as a number, with no unit following it.

Request: Retrieve solubility (mole fraction) measured for Nc1ncc(Br)nc1Br and print it.
Result: 0.000577

* * *

Would you mind telling me the reported solubility (mole fraction) of each entry?
experimental_parameters: in water, 278.15 K

Request: Retrieve solubility (mole fraction) measured for Nc1ncc(Br)nc1Br and print it.
Result: 2.55e-06

Request: Retrieve solubility (mole fraction) measured for Nc1nccnc1Cl and print it.
Result: 2.78e-05
